System: P. falciparum W2 (CQ-resistant) strain
Test: P. falciparum drug susceptibility assay
Type: cell-based
Conditions: ratio of IC50 against W2 and D10 strains
Recorded Metric: RI (resistance index)

• c1ccc2c(c1)[nH]c1ccncc12 [Compound 3, 9H-3-azacarbazole] = 1.1
• c1ccc2c(c1)[nH]c1cnccc12 [Compound 2, 9H-2-azacarbazole] = 1.1
• Cn1cccc2nc3cccnc3c1-2 [Compound 12, 4-methyl-4H-4,5-diazacarbazole] = 1.3
• Cc1ccn(C)c2nc3ccccc3c1-2 [Compound 6, 1,4-dimethyl-1H-1-azacarbazole] = 0.9

* * *

Assay: In vivo pharmacokinetic evaluation in mice
Conditions: male, CD-1, mouse, plasma, po, 0.02 mg/kg
Recorded Metric: k el (s⁻¹)

• c1ccc2c(c1)[nH]c1ccncc12 = 0.000165
